# study target: FGFR3 (UniProt P22607)
# Sequence (P22607 whole entry, looked up): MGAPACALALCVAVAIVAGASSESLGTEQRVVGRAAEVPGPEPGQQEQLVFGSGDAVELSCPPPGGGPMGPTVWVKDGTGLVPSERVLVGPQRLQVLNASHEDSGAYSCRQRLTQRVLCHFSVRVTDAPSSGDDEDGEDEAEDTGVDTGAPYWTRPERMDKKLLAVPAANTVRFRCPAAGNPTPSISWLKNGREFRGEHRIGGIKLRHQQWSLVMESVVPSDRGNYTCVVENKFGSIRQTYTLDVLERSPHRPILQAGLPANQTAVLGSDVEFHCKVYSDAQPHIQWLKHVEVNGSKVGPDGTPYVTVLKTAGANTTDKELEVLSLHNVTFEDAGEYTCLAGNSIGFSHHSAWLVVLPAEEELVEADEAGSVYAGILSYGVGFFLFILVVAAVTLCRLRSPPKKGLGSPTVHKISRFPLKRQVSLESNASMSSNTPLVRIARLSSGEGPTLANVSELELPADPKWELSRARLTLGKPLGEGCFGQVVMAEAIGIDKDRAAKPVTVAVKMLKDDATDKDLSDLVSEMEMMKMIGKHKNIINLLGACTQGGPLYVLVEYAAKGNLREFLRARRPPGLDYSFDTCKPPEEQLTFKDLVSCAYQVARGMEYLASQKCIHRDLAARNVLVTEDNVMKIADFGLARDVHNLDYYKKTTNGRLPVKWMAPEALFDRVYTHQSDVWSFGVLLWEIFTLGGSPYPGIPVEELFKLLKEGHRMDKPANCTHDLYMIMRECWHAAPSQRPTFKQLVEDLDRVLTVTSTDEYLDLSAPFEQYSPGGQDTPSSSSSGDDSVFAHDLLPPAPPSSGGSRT
# assay details: phosphorylation enrichment, bacterial display (enrichment ratio); higher = better substrate or ligand; peptides without Tyr show the background;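 further: 11-residue human phosphosite peptides and single-mutation variants displayed on the E. coli surface, counted by deep sequencing, each peptide's frequency after selection divided by its frequency in the unselected input library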;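 further: frequency after pTyr selection over input frequency; kinase dosed for 20-30% of maximal phosphorylation in three min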
Consider the following sequences; for each one, report its phosphorylation enrichment.

Here's what some known entries look like.
PADCRYYTFPQ [GAMT_Y222_A224T] = 5
VRTGIYHGGKP [PIK3CA_Y361_E365K] = 0.275
LTNDRYLATLT [IL6ST_Y396] = 0.586
LHAAAYRNALA [UQCRC2_Y182] = 0.402
KRYRIYHLATS [BRCA2_Y3009] = 0.509

Give phosphorylation enrichment for each listed item.
1. MICSAYALGGL [CPS1_Y590_R587C]
2. TRYDEYLEVTK [MAP1A_Y2217_H2214Y]
3. QEALEYFMKQT [PIK3CA_Y1038_M1043T]

1. 0.844
2. 0.872
3. 2.76
